Test: Thy-REPAIR phase II study: T3 levels in serum during hospitalization
Assay type: in vivo, patients
Details: human, serum; at 24 hours; 0.8 μg/kg iv bolus then 0.113 μg/kg/h iv for 48 hours; placebo 0.79 (0.06), p<0.01
Method: The potential effect of early administration of high dose TH (acute treatment) after an index event has been also investigated in experimental models of ischemia-reperfusion (I/R) using isolated rat heart preparations. […] The primary end point of this study is recovery of myocardial function after 6 months of the index event as this is assessed by Cardiac Magnetic Resonance (CMR) at discharge and at 6 months after acute myocardial infarction. […]
assay.readout: concentration at 24 h (ng/mL)

molecule: N[C@@H](Cc1cc(I)c(Oc2ccc(O)c(I)c2)c(I)c1)C(=O)O [T3, L-triiodothyronine]
assay.readout: concentration at 24 h
readout.value: 5.5
